# System: Mus musculus
# assay.details: Antinociceptive activity in Swiss mouse assessed as inhibition of acetic acid-induced writhing at 10 mg/kg, ip administered 30 mins before acetic acid challenge measured after 20 mins relative to control
# Type: functional
# cond: route intraperitoneal
Answer FALSE if inhibition in vivo at 10 mg/kg is under 80%, and TRUE if it is 80% or more.

INSERT INTO assay_data (molecule, measurement_target, qualitative_label) VALUES
  ('Cc1c(N2C(=O)C(Cl)=C(Nc3ccc(Cl)c([N+](=O)[O-])c3)C2=O)c(=O)n(-c2ccccc2)n1C', 'Mus musculus', 'TRUE'),
  ('Cc1c(N2C(=O)C(Cl)=C(Cl)C2=O)c(=O)n(-c2ccccc2)n1C', 'Mus musculus', 'TRUE'),
  ('Cc1c(N2C(=O)C(Cl)=C(Nc3ccc(Cl)cc3)C2=O)c(=O)n(-c2ccccc2)n1C', 'Mus musculus', 'TRUE'),
  ('Cc1c(N2C(=O)C(Cl)=C(N3CCCCC3)C2=O)c(=O)n(-c2ccccc2)n1C', 'Mus musculus', 'TRUE'),
  ('Cc1c(N2C(=O)C(Cl)=C(Nc3cccc([N+](=O)[O-])c3)C2=O)c(=O)n(-c2ccccc2)n1C', 'Mus musculus', 'FALSE'),
  ('Cc1c(N2C(=O)C(Cl)=C(Nc3ccc(C(=O)O)cc3)C2=O)c(=O)n(-c2ccccc2)n1C', 'Mus musculus', 'FALSE'),
  ('Cc1c(N2C(=O)C(Cl)=C(Nc3ccc(Br)cc3)C2=O)c(=O)n(-c2ccccc2)n1C', 'Mus musculus', 'TRUE');
